experiment: Solubility study of Compound I Form I in various solvents and temperatures; format: physicochemical; conditions: organic solvent or mixture; CH2Cl2/EtOH 10/90, 10° C.
endpoint_name: solubility

Q: Quick check: solubility of CC1=C(O)C(=O)C=C2C1=CC=C1[C@@]2(C)CC[C@@]2(C)[C@@H]3C[C@](C)(C(=O)O)CC[C@]3(C)CC[C@]12C [Compound 1 Form I] ?
Result: 11 to 15 mg/mL

====

test: Solubility study of Compound I Form I in various solvents and temperatures; assay type: physicochemical; details: aqueous with cosolvent or surfactant or cyclodextrin; Water/EtOH 50/50, 10° C.
endpoint_name: solubility

Q: Quick check: solubility of CC1=C(O)C(=O)C=C2C1=CC=C1[C@@]2(C)CC[C@@]2(C)[C@@H]3C[C@](C)(C(=O)O)CC[C@]3(C)CC[C@]12C [Compound 1 Form I] ?
Result: < 11 mg/mL

====

assay: Solubility study of Compound I Form I in various solvents and temperatures; type: physicochemical; conditions: organic solvent or mixture; CH2Cl2, 25° C.
endpoint_name: solubility

Q: Quick check: solubility of CC1=C(O)C(=O)C=C2C1=CC=C1[C@@]2(C)CC[C@@]2(C)[C@@H]3C[C@](C)(C(=O)O)CC[C@]3(C)CC[C@]12C [Compound 1 Form I] ?
Result: > 120 mg/mL

====

assay: Solubility study of Compound I Form I in various solvents and temperatures; format: physicochemical; details: organic solvent or mixture; Propan-2-ol, 50° C.
endpoint_name: solubility

Q: Quick check: solubility of CC1=C(O)C(=O)C=C2C1=CC=C1[C@@]2(C)CC[C@@]2(C)[C@@H]3C[C@](C)(C(=O)O)CC[C@]3(C)CC[C@]12C [Compound 1 Form I] ?
Result: 25 to 40 mg/mL

====

assay: Solubility study of Compound I Form I in various solvents and temperatures; assay type: physicochemical; conditions: methanol, organic solvent or mixture; MeOH, 50° C.
endpoint_name: solubility

Q: Quick check: solubility of CC1=C(O)C(=O)C=C2C1=CC=C1[C@@]2(C)CC[C@@]2(C)[C@@H]3C[C@](C)(C(=O)O)CC[C@]3(C)CC[C@]12C [Compound 1 Form I] ?
Result: ~36 mg/mL

====

assay: Solubility study of Compound I Form I in various solvents and temperatures; format: physicochemical; settings: CH2Cl2/EtOH 20/80, organic solvent or mixture; CH2Cl2-2/EtOH 20/80, 40° C.
endpoint_name: solubility

Q: Quick check: solubility of CC1=C(O)C(=O)C=C2C1=CC=C1[C@@]2(C)CC[C@@]2(C)[C@@H]3C[C@](C)(C(=O)O)CC[C@]3(C)CC[C@]12C [Compound 1 Form I] ?
Result: 31 to 40 mg/mL

====

experiment: Solubility study of Compound I Form I in various solvents and temperatures; format: physicochemical; conditions: organic solvent or mixture; CH2Cl2/EtOH 30/70, 10° C.
endpoint_name: solubility

Q: Quick check: solubility of CC1=C(O)C(=O)C=C2C1=CC=C1[C@@]2(C)CC[C@@]2(C)[C@@H]3C[C@](C)(C(=O)O)CC[C@]3(C)CC[C@]12C [Compound 1 Form I] ?
Result: 25 to 45 mg/mL

====

test: Solubility study of Compound I Form I in various solvents and temperatures; type: physicochemical; details: aqueous with cosolvent or surfactant or cyclodextrin; Water/EtOH 50/50, 25° C.
endpoint_name: solubility

Q: Quick check: solubility of CC1=C(O)C(=O)C=C2C1=CC=C1[C@@]2(C)CC[C@@]2(C)[C@@H]3C[C@](C)(C(=O)O)CC[C@]3(C)CC[C@]12C [Compound 1 Form I] ?
Result: < 11 mg/mL

====

assay: Hygroscopicity (DVS), water sorption/desorption at 37° C.; assay type: physicochemical; details: water sorption/desorption isotherms at 37° C., 0-95% RH
endpoint_name: DVS (hygroscopicity)

- compound: "CC1=C(O)C(=O)C=C2C1=CC=C1[C@@]2(C)CC[C@@]2(C)[C@@H]3C[C@](C)(C(=O)O)CC[C@]3(C)CC[C@]12C [Compound 1 Form III]"
  result: "non-hygroscopic"
- compound: "CC1=C(O)C(=O)C=C2C1=CC=C1[C@@]2(C)CC[C@@]2(C)[C@@H]3C[C@](C)(C(=O)O)CC[C@]3(C)CC[C@]12C [Compound 1]"
  result: "non-hygroscopic"
- compound: "CC1=C(O)C(=O)C=C2C1=CC=C1[C@@]2(C)CC[C@@]2(C)[C@@H]3C[C@](C)(C(=O)O)CC[C@]3(C)CC[C@]12C [Compound 1 Form II]"
  result: "non-hygroscopic"

====

experiment: Hygroscopicity (DVS), water sorption/desorption at 37° C.; format: physicochemical; details: DVS, 37° C.
endpoint_name: Water uptake, water sorption/desorption isotherms

Illustrative cases are given below, each with its answer.
- molecule: "CC1=C(O)C(=O)C=C2C1=CC=C1[C@@]2(C)CC[C@@]2(C)[C@@H]3C[C@](C)(C(=O)O)CC[C@]3(C)CC[C@]12C [Compound 2]"
  result: "2 ˜15 % w/w"
- molecule: "CC1=C(O)C(=O)C=C2C1=CC=C1[C@@]2(C)CC[C@@]2(C)[C@@H]3C[C@](C)(C(=O)O)CC[C@]3(C)CC[C@]12C [Compound 1 Form I]"
  result: "< 0.2 % w/w"
- molecule: "CC1=C(O)C(=O)C=C2C1=CC=C1[C@@]2(C)CC[C@@]2(C)[C@@H]3C[C@](C)(C(=O)O)CC[C@]3(C)CC[C@]12C [Compound 1 Form II]"
  result: "< 0.2 % w/w"
- molecule: "CC1=C(O)C(=O)C=C2C1=CC=C1[C@@]2(C)CC[C@@]2(C)[C@@H]3C[C@](C)(C(=O)O)CC[C@]3(C)CC[C@]12C [Compound 1 Form III]"
  result: "< 0.2%"

Q: Quick check: Water uptake, water sorption/desorption isotherms of CC1=C(O)C(=O)C=C2C1=CC=C1[C@@]2(C)CC[C@@]2(C)[C@@H]3C[C@](C)(C(=O)O)CC[C@]3(C)CC[C@]12C [Compound 1] ?
Result: < 0.2 wt-%

====

test: Solubility study of Compound I Form I in various solvents and temperatures; assay type: physicochemical; conditions: organic solvent or mixture; CH2Cl2/EtOH 50/50, 10° C.
endpoint_name: solubility

Q: Quick check: solubility of CC1=C(O)C(=O)C=C2C1=CC=C1[C@@]2(C)CC[C@@]2(C)[C@@H]3C[C@](C)(C(=O)O)CC[C@]3(C)CC[C@]12C [Compound 1 Form I] ?
Result: > 40 mg/mL

====

test: Solubility profile of Compound 1 Form III in water, ethanol and methanol; assay type: physicochemical; details: organic solvent or mixture, thermodynamic from solid; methanol, 50° C.
endpoint_name: solubility

Q: Quick check: solubility of CC1=C(O)C(=O)C=C2C1=CC=C1[C@@]2(C)CC[C@@]2(C)[C@@H]3C[C@](C)(C(=O)O)CC[C@]3(C)CC[C@]12C [Compound 1 Form III] ?
Result: 27 to 33 mg/mL

====

assay: Solubility study of Compound I Form I in various solvents and temperatures; format: physicochemical; conditions: organic solvent or mixture; Propan-2-ol, 10° C.
endpoint_name: solubility

Q: Quick check: solubility of CC1=C(O)C(=O)C=C2C1=CC=C1[C@@]2(C)CC[C@@]2(C)[C@@H]3C[C@](C)(C(=O)O)CC[C@]3(C)CC[C@]12C [Compound 1 Form I] ?
Result: < 25 mg/mL

====

assay: XRPD under temperature and relative humidity; format: physicochemical; conditions: RH 10 to 80-90% at 40° C.
endpoint_name: XRPD under relative humidity: impact / new crystalline phase

- molecule: "CC1=C(O)C(=O)C=C2C1=CC=C1[C@@]2(C)CC[C@@]2(C)[C@@H]3C[C@](C)(C(=O)O)CC[C@]3(C)CC[C@]12C [Compound 1 Form I]"
  result: "No impact"
- molecule: "CC1=C(O)C(=O)C=C2C1=CC=C1[C@@]2(C)CC[C@@]2(C)[C@@H]3C[C@](C)(C(=O)O)CC[C@]3(C)CC[C@]12C [Compound 1 Form II]"
  result: "No impact"

====

assay: Solubility study of Compound I Form I in various solvents and temperatures; format: physicochemical; conditions: organic solvent or mixture; CH2Cl2/EtOH 10/90, 40° C.
endpoint_name: solubility

Q: Quick check: solubility of CC1=C(O)C(=O)C=C2C1=CC=C1[C@@]2(C)CC[C@@]2(C)[C@@H]3C[C@](C)(C(=O)O)CC[C@]3(C)CC[C@]12C [Compound 1 Form I] ?
Result: < 25 mg/mL

====

experiment: Solubility study of Compound I Form I in various solvents and temperatures; assay type: physicochemical; details: organic solvent or mixture; CH2Cl2/EtOH 70/30, 10° C.
endpoint_name: solubility

Q: Quick check: solubility of CC1=C(O)C(=O)C=C2C1=CC=C1[C@@]2(C)CC[C@@]2(C)[C@@H]3C[C@](C)(C(=O)O)CC[C@]3(C)CC[C@]12C [Compound 1 Form I] ?
Result: > 40 mg/mL
